system: Steryl-sulfatase (Homo sapiens)
Sequence (P08842 whole entry): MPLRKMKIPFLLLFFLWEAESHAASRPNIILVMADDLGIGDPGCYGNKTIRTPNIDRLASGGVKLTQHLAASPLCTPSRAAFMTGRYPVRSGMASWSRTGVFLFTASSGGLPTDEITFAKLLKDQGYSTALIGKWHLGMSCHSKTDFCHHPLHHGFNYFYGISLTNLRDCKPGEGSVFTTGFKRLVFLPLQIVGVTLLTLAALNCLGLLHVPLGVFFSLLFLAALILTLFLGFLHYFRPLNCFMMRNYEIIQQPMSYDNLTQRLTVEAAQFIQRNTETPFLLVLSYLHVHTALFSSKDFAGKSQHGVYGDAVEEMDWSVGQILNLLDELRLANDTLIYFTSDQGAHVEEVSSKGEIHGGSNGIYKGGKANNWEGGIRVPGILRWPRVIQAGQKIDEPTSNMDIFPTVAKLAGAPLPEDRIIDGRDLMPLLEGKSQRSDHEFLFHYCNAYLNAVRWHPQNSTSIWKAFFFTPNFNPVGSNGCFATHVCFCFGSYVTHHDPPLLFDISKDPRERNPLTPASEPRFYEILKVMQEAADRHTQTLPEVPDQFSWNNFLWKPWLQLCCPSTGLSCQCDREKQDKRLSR
measurementNotes: Inhibitory activity against STS in human MCF-7 breast cancer cells
Assay type: cell-based
conditionsUsed: mcf7
recordedEndpoint: pIC50
Reminder that pIC50 is minus the log10 of a molar concentration.

Q: I have this compound here, `NS(=O)(=O)Oc1ccc2nc(C=C3C4CC5CC(C4)CC3C5)oc2c1` , and I need its recorded pIC50.
A: 8.64

---

system: Steryl-sulfatase (Homo sapiens)
measurementNotes: Inhibitory activity against human steroid sulfatase in fibroblasts
recordedEndpoint: pIC50
Reminder that pIC50 is minus the log10 of a molar concentration.

Q: I have this compound here, `NS(=O)(=O)Oc1ccc2nc(C=C3C4CC5CC(C4)CC3C5)oc2c1` , and I need its recorded pIC50.
A: 9.12

---

What Ki was measured for each of the following?
system: Steryl-sulfatase (Homo sapiens)
Sequence (P08842 whole entry): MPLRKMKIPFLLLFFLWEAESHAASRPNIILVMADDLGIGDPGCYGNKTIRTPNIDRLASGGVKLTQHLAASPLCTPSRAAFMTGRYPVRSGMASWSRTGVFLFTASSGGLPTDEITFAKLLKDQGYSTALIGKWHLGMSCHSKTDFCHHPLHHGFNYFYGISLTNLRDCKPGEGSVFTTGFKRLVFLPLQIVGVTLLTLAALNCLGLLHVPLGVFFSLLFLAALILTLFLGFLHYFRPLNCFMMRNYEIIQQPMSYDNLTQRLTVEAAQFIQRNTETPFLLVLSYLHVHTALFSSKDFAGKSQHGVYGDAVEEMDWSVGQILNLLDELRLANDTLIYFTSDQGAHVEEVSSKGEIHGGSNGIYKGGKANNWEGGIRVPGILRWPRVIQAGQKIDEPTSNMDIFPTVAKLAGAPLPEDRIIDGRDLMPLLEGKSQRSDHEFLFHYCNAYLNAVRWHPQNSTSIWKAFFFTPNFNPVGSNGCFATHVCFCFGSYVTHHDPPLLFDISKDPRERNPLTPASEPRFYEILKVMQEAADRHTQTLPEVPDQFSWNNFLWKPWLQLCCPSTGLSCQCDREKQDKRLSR
Response body: numeric value in µM, unit text excluded.

Q: I have this molecule here, C[C@]12CC[C@@H]3c4ccc(OS(N)(=O)=O)cc4CCC3[C@@H]1CCC2=O (single isomer, unassigned) [EMATE] , and I need its recorded Ki.
A: 0.47

Q: I have this molecule here, `NS(=O)(=O)Oc1ccc2nc(C=C3C4CC5CC(C4)CC3C5)oc2c1` , and I need its recorded Ki.
A: 6

---

system: Estrogen receptor beta (Homo sapiens)
Sequence (Q92731 whole entry): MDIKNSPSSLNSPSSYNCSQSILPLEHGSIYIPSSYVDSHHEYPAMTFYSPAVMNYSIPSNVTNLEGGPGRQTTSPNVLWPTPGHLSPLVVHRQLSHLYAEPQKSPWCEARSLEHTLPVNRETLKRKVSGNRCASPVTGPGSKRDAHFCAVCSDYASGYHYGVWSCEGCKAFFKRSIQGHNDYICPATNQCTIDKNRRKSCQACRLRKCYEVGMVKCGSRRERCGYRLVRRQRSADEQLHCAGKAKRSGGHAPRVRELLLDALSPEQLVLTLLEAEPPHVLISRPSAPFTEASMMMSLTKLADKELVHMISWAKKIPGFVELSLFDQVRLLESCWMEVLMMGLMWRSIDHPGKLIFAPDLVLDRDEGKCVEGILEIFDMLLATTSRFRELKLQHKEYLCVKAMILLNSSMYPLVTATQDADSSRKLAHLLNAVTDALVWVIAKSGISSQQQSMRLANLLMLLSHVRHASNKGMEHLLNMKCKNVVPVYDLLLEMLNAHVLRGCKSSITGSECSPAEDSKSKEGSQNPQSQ
measurementNotes: Affinity for human estrogen receptor beta
recordedEndpoint: pEC50
Reminder that pEC50 is minus the log10 of a molar concentration.

Q: Notebook: pull reported pEC50 for Estrogen receptor beta (Homo sapiens), entry C[C@]12CC[C@@H]3c4ccc(OS(N)(=O)=O)cc4CCC3[C@@H]1CCC2=O (single isomer, unassigned) [EMATE]
A: 5.43
